Test system: NCI-H226 lung
Assay: NCI-60 one-dose screen, 48 h (100 = growth as untreated, 0 = no growth, -100 = all killed)
Conditions: 10 µM
Protocol: Growth inhibition of the NCI-H226 human Non-Small Cell Lung tumor cell line is measured as a screen for anti-cancer activity. Cells are grown in 96 well plates and exposed to the test compound for 48 hours. Compounds are tested at a single concentration, which is 10^-5 M for most compounds. The reported endpoint is percent growth (GI% or GIPRCNT), where numbers from 0 - 100% represent growth inhibition, and numbers from -100% - 0 represent cell death. […]
Compounds without any hit were thinned out: in the full panel of roughly 83,000, 20% have a hit.
readoutKind: growth (%)

{"columns": ["molecule", "reported"],
 "data": [
  ["Cn1c([N+](=O)[O-])cnc1/C=C1\\Oc2cc(Cl)ccc2C1=O", 59.5],
  ["CCCCCC(=O)c1ccc(OCCCN2CCN(C(=O)OCC)CC2)cc1", 73],
  ["CCc1ccc2c(c1)N(CCO)C1=C(C(=O)OC1)C2c1ccccc1 (stereo unspecified)", 102],
  ["CN1CC[C@@H](c2c(O)cc(O)c3c(=O)cc(-c4ccccc4Cl)oc23)[C@@H](O)C1", 11.8],
  ["COc1cc(/C=N/NC(=O)c2ccccc2Nc2cccc(C(F)(F)F)c2)cc(OC)c1OC", 36.9],
  ["CC/C(C)=C(\\C)C(=O)O", 96.5],
  ["O=C(c1ccc(Cl)cc1Cl)N1CCOCC1", 96.8],
  ["CCN(CC)CCOc1nc2ccc(OC)cc2c2c1-c1ccc(OC)cc1C2=O", 16.5],
  ["CN(C)CC(O)c1ccc2cc(Br)c3ccccc3c2c1 (stereo unspecified)", 78.7],
  ["C=C(Cl)[C@@](Cl)(CBr)CC[C@@H](Br)C(C)(C)Cl", 105],
  ["N=C(N)c1ccc(-c2ccc(-c3cccs3)o2)cc1", 67.5],
  ["CC(C)(C)NC/C(=C\\c1ccccc1)C(=O)c1ccccc1", 49.1],
  ["N=C(N)c1ccc(-c2ccc(-c3ccco3)o2)cc1", 77.8],
  ["COc1ccc(-c2nn(-c3cccc(NC(=O)Nc4cccc(C(F)(F)F)c4)c3)cc2-c2ccncc2)cc1Cl", 25.7],
  ["COc1cc(Cl)cc(-c2nn(-c3cccc(NC(=O)Nc4ccc(Cl)c(Cl)c4)c3)cc2-c2ccncc2)c1", 7.27],
  ["CS(=O)(=O)Nc1ccc(Nc2c3ccccc3nc3cc([N+](=O)[O-])ccc23)cc1", 0.761],
  ["COc1ccc(/C=C2/CN(C(=O)c3ccccc3F)C/C(=C\\c3ccc(OC)cc3)C2=O)cc1", 57.8],
  ["Cc1ccc(C(=O)N2C/C(=C/c3ccccc3)C(=O)/C(=C/c3ccccc3)C2)cc1", 71.2],
  ["O=C(Nc1cccc(Cl)c1)Nc1nccs1", 99.6],
  ["N#CCCN(NC(=O)OCc1ccccc1)C(=O)OCc1ccccc1", 115],
  ["CCOC1(OCC)OC(c2ccccc2)=C(C#N)C(/C=C\\c2ccccc2)C1(OCC)OCC (stereo unspecified)", 81.2]
]}

====

Reported growth by item:
tested on: IGROV1 ovarian; experiment: NCI-60 one-dose screen, 48 h (100 = growth as untreated, 0 = no growth, -100 = all killed); conditions: 10 µM
The panel holds about 83,000 compounds, 20% with a hit somewhere; the sample as a whole holds those more often.
readoutKind: growth (%)

{"columns": ["molecule", "assayTarget", "reported"],
 "data": [
  ["CCCCOc1ccc(NC(=O)Nc2nnc(C)s2)cc1", "IGROV1 ovarian", 91.6],
  ["O=C(CCCCCCC(=O)Nc1cccnc1)NO", "IGROV1 ovarian", 31],
  ["COc1cc(/C=C2\\Oc3cc(OCC(=O)c4ccccc4)ccc3C2=O)cc(OC)c1OC", "IGROV1 ovarian", 55.1],
  ["Fc1ccc2nc(-c3nc(-c4ccccc4)n4ccccc34)[nH]c2c1", "IGROV1 ovarian", 1.27],
  ["COc1ccc(-c2nnc(-c3c(-c4ccccc4)nc4ncccn34)o2)cc1OC", "IGROV1 ovarian", 98.5],
  ["COc1cc(-c2cc(/C=C3\\C(=O)Nc4cc(Cl)ccc43)[nH]n2)cc(OC)c1OC", "IGROV1 ovarian", 4.31],
  ["Cc1ccc(NC(=O)NC2CCCCC2)cc1", "IGROV1 ovarian", 105],
  ["COc1cc(Nc2ccnc(NCCCNc3ccnc4cc(Cl)ccc34)n2)cc(OC)c1", "IGROV1 ovarian", 27.2],
  ["C#Cc1ccc(-n2c(/C=C/c3cc(OC)cc(OC)c3)nc3ncccc3c2=O)cc1", "IGROV1 ovarian", 91.9],
  ["CCOC(=O)c1ccc(NC(=O)Nc2ncc(Cl)cc2Cl)cc1", "IGROV1 ovarian", 115],
  ["N#CCCN1C/C(=C/c2ccc(Cl)cc2)C(=O)/C(=C/c2ccc(Cl)cc2)C1", "IGROV1 ovarian", -66.7]
]}
